Tested on: HEK-293T
Test: Multiplex assay against HEK293T
Type: toxicity, cell-based
Conditions: human, 12 h, 10 µM, compound concentration 10 uM, replicate 1
Lab note: anything with Population Pyknosed Nuclei (%) below 20% is marked satisfied; values at 20% or higher are marked not satisfied.

Worked set:
CCc1nn2c(C)cc(C)nc2c1Cc1ccc(-c2nnc(C3CCNCC3)o2)cc1: not satisfied
COc1cc(Nc2ncc3c(n2)-c2ccc(Cl)cc2C(c2c(F)cccc2OC)=NC3)ccc1C(=O)O [ALISERTIB]: satisfied
O=C(NCCNCC(O)COc1ccc(O)cc1)N1CCOCC1.O=C(NCCNCC(O)COc1ccc(O)cc1)N1CCOCC1.O=C(O)/C=C/C(=O)O (stereo unspecified) [XAMOTEROL FUMARATE]: satisfied
Cc1cc(O)c(-c2ccc([C@@H](C)CN(C)C)cc2)c2c1[nH]c(=O)c1sccc12: not satisfied
COCCCN1CCC(NC(=O)c2cc(Cl)c(N)c3c2OCC3)CC1 [PRUCALOPRIDE]: satisfied

Now examine the next entry.
# TODO verify Population Pyknosed Nuclei (%) < 20% strictly for this compound: CSc1nc(NC2CCCC2)c([N+](=O)[O-])c(NC2CCCC2)n1 [GS-39783] satisfied
